molecular target: Helicobacter pylori FabX R164A (H. pylori); assay: ITC
pKd: −log10 of the molar value.
measurement.kind: pKd

What the record says about Helicobacter pylori holo-acyl carrier protein (natural protein, phosphopantetheine group (PPant) on Ser36) MALFEDIQAVIAEQLNVDAVQVTPEAEFVKDLGADSLDVVELIMALEEKFGVEIPDEQAEKIINVGDVVKYIEDNKLA : pKd is < 3.70
